Origin of the recorded values: the supplement of paper PMC9262897

test system: E. coli TESEC Mtb Alr; test: growth (OD600 after 10 h); higher = more growth (less inhibition); settings: arabinose 100 nM; compound 0.1 mM; raw OD600 reference: median of DMSO wells 0.413, cell-free background 0.052
Where a name gives a salt, the structure may show the parent alone.
Please mark YES if the recorded growth is equal to or greater than 0.4, and NO if it falls below.

1. CCCC1O[C@@H]2C[C@H]3[C@@H]4CCC5=CC(=O)C=C[C@]5(C)[C@H]4[C@@H](O)C[C@]3(C)[C@]2(C(=O)CO)O1 (stereo partly drawn) [Budesonide]
YES
2. Cc1cc(C(C)(C)C)cc(C)c1CC1=NCCN1 [Xylometazoline hydrochloride]
YES
3. Cc1ccc(O)c([C@H](CCN(C(C)C)C(C)C)c2ccccc2)c1 [Tolterodine tartrate]
YES
4. O=C(O)CN(CCN(CC(=O)O)CC(=O)O)CCN(CC(=O)O)CC(=O)O
NO
